# inhibition at 1 µM per entry
Target: hMC3-R (Homo sapiens, UniProt P41968)
Construct: expressed in transfected cells
Sequence (P41968 whole entry): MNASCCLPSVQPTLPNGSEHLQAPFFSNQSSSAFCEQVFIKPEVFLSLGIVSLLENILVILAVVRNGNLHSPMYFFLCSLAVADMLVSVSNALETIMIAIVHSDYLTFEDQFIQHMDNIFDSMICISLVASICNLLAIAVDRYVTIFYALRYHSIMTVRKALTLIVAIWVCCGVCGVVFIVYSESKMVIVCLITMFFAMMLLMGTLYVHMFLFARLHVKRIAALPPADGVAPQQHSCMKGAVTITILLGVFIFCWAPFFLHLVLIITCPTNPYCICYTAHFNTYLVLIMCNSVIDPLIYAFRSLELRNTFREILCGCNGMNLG
Test: Competitive inhibition binding assay, 125I-NDP-α-MSH, hMC3-R
Conditions: 1 μM test compound; 0.4 nM 125I-NDP-α-MSH; hMC3-R membranes; mean of triplicates; results less than 0% reported as 0%; read-out: Inhibition at 1 μM MC3-R
Answer in %, number only, no unit symbol.

As a guide, the following entries are already answered.
compound: NCCCNC(=O)[C@@H]1C[C@@H](OCc2ccccc2)CN1C(=O)[C@@H](Cc1ccc(Cl)cc1)NC(=O)[C@@H]1Cc2ccccc2CN1 [Example 21]
value.unit: %
inhibition at 1 µM: 6
//
compound: [2H]N[C@@H](Cc1cnc[nH]1)C(=O)N[C@@H](Cc1ccccc1)C(=O)N1C[C@H](OCc2ccccc2)C[C@H]1C(=O)NCCCCCN [Example 26]
value.unit: %
inhibition at 1 µM: 0
//
compound: NCCCNC(=O)[C@@H]1C[C@@H](OCc2ccccc2)CN1C(=O)[C@@H](Cc1ccccc1)NC(=O)[C@H]1Cc2ccccc2CN1 [Example 24]
value.unit: %
inhibition at 1 µM: 0
//
compound: [2H]N[C@@H](Cc1cnc[nH]1)C(=O)N[C@@H](Cc1ccccc1)C(=O)N1C[C@H](OCc2ccccc2)C[C@H]1C(=O)NCCCNC(=N)N [Example 29]
value.unit: %
inhibition at 1 µM: 0

Now take the following compound into account.
INPUT: Give recorded inhibition at 1 µM. [2H]N[C@@H](Cc1cnc[nH]1)C(=O)N[C@@H](Cc1ccccc1)C(=O)N1C[C@H](OCc2ccccc2)C[C@H]1C(=O)NCCCN [Example 12]
OUTPUT: 0

---

Molecular target: hMC5-R (Homo sapiens, UniProt P33032)
Construct: expressed in transfected cells
Sequence (P33032 whole entry): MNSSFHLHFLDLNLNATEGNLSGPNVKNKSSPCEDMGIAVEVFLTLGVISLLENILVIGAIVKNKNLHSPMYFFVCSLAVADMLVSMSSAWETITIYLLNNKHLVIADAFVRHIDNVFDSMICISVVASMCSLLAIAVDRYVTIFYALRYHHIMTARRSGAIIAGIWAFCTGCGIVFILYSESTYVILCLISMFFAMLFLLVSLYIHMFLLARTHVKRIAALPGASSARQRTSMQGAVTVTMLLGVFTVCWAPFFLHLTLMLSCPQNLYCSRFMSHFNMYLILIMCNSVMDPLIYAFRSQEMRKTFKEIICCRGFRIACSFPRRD
Assay: Competitive inhibition binding assay, 125I-NDP-α-MSH, hMC5-R
Details: 1 μM test compound; 0.4 nM 125I-NDP-α-MSH; hMC5-R membranes; mean of triplicates; results less than 0% reported as 0%; read-out: Inhibition at 1 μM MC5-R
measured.metric: inhibition at 1 µM (%)
Answer in %, number only, no unit symbol.

As a guide, the following entries are already answered.
compound: NCCCNC(=O)[C@@H]1C[C@@H](OCc2ccccc2)CN1C(=O)[C@@H](Cc1ccc(Cl)cc1)NC(=O)[C@@H]1Cc2ccccc2CN1 [Example 21]
inhibition at 1 µM, %: 48
//
compound: NCCCNC(=O)[C@@H]1C[C@@H](OCc2ccccc2)CN1C(=O)[C@@H](Cc1ccccc1)NC(=O)[C@@H]1Cc2ccccc2CN1 [Example 23]
inhibition at 1 µM, %: 14
//
compound: [2H]N[C@@H](Cc1cnc[nH]1)C(=O)N[C@@H](Cc1ccccc1)C(=O)N1C[C@H](OCc2ccccc2)C[C@H]1C(=O)NCCCN [Example 12]
inhibition at 1 µM, %: 2

INPUT: Give recorded inhibition at 1 µM. [2H]N[C@@H](Cc1cnc[nH]1)C(=O)N[C@@H](Cc1ccccc1)C(=O)N1C[C@H](OCc2ccccc2)C[C@H]1C(=O)NCCCNC(=N)N [Example 29]
OUTPUT: 4

INPUT: Give recorded inhibition at 1 µM. NCCCNC(=O)[C@@H]1C[C@@H](OCc2ccccc2)CN1C(=O)[C@@H](Cc1ccccc1)NC(=O)[C@H]1Cc2ccccc2CN1 [Example 24]
OUTPUT: 0

INPUT: Give recorded inhibition at 1 µM. [2H]N[C@@H](Cc1cnc[nH]1)C(=O)N[C@@H](Cc1ccccc1)C(=O)N1C[C@H](OCc2ccccc2)C[C@H]1C(=O)NCCCCN [Example 25]
OUTPUT: 7

INPUT: Give recorded inhibition at 1 µM. [2H]N1CCC[C@@H]1C(=O)N[C@@H](Cc1ccccc1)C(=O)N1C[C@H](OCc2ccccc2)C[C@H]1C(=O)NCCCN [Example 44]
OUTPUT: 0

---

Molecular target: hMC3-R (Homo sapiens)
Construct: expressed in transfected cells
Experiment: Competitive inhibition binding assay, 125I-NDP-α-MSH, hMC3-R
Details: 1 μM test compound; 0.4 nM 125I-NDP-α-MSH; hMC3-R membranes; mean of triplicates; results less than 0% reported as 0%
measured.metric: Inhibition at 1 μM MC3-R (%)
Answer in %, number only, no unit symbol.

As a guide, the following entries are already answered.
molecule: [2H]N[C@@H](Cc1ccccc1)C(=O)N1C2CC[C@H](COc3ccccc3)N2C(=O)[C@@H]1CCCCN (some centres unmarked) [Example 36]
Inhibition at 1 μM MC3-R, %: 41
--
molecule: C[C@@H]1CN(C(=O)[C@H](N)Cc2ccc(Cl)cc2)[C@@H](CCCNC(=N)N)CN1CCc1ccc2ccccc2c1 [Example 15]
Inhibition at 1 μM MC3-R, %: 46
--
molecule: CCCCCCC(=O)N[C@@H](Cc1cnc[nH]1)C(=O)N[C@H](Cc1ccccc1)C(=O)N1C[C@H](OCc2ccccc2)C[C@H]1C(=O)NCCCNC(=N)N [Example 30]
Inhibition at 1 μM MC3-R, %: 7

INPUT: Give recorded Inhibition at 1 μM MC3-R. [2H]N[C@@H](Cc1ccccc1)C(=O)N1C2CC[C@H](COc3ccc4ccccc4c3)N2C(=O)[C@@H]1CCCCN (some centres unmarked) [Example 38]
OUTPUT: 0

INPUT: Give recorded Inhibition at 1 μM MC3-R. [2H]N[C@@H](Cc1cnc[nH]1)C(=O)N[C@@H](Cc1ccccc1)C(=O)N1C2CC[C@H](COc3ccc4ccccc4c3)N2C(=O)[C@@H]1CCCCN (some centres unmarked) [Example 42]
OUTPUT: 0

---

# inhibition at 1 µM per entry
Biological target: hMC4-R (Homo sapiens)
Construct: expressed in transfected cells
Sequence (P32245 whole entry): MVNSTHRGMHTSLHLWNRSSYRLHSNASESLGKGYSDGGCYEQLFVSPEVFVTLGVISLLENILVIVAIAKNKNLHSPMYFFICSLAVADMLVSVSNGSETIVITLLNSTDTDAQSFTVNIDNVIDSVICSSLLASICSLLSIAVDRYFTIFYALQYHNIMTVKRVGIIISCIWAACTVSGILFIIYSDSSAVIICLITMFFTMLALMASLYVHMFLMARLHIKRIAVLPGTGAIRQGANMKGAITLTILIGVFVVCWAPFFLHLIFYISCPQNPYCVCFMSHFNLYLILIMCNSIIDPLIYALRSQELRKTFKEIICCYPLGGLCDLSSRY
Assay: Competitive inhibition binding assay, 125I-NDP-α-MSH, hMC4-R
Settings: 1 μM test compound; 0.4 nM 125I-NDP-α-MSH; hMC4-R membranes; mean of triplicates; results less than 0% reported as 0%; read-out: Inhibition at 1 μM MC4-R
Description: A competitive inhibition binding assay was conducted using membranes prepared from hMC3-R, hMC4-R, hMC5-R, and B-16 mouse melanoma cells (containing MC1-R) using 0.4 nM ^125I-NDP-α-MSH (New England Nuclear, Boston, Mass., USA) in 50 mM HEPES buffer containing 1 mM MgCl2, 2 mM CaCl2, and 5 mM KCl, at pH 7.2. […]
Non-standard residues stand in square brackets, D forms with d. Residues, ends and D or L forms follow the SMILES beside them. *: point of attachment. Hyp = O=C(O)[C@@H]1C[C@@H](O)CN1; Nle = CCCC[C@H](N)C(=O)O; NH(CH2)3NH2 = NCCCN*; Bn = c1ccc(C*)cc1
Answer in %, number only, no unit symbol.

compound: [2H]N[C@@H](Cc1cnc[nH]1)C(=O)N[C@@H](Cc1ccccc1)C(=O)N1C[C@H](OCc2ccccc2)C[C@H]1C(=O)NCCCCCN
value.unit: %
inhibition at 1 µM: 1
//
compound: NCCCNC(=O)[C@@H]1C[C@@H](OCc2ccccc2)CN1C(=O)[C@@H](Cc1ccccc1)NC(=O)[C@H]1Cc2ccccc2CN1
value.unit: %
inhibition at 1 µM: 5
//
compound: [2H]N[C@@H](Cc1cnc[nH]1)C(=O)N[C@@H](Cc1ccccc1)C(=O)N1C[C@H](OCc2ccccc2)C[C@H]1C(=O)NCCCNC(=N)N
value.unit: %
inhibition at 1 µM: 6
//
compound: [2H]N[C@@H](Cc1cnc[nH]1)C(=O)N[C@@H](Cc1ccccc1)C(=O)N1C[C@H](OCc2ccccc2)C[C@H]1C(=O)NCCCCN
value.unit: %
inhibition at 1 µM: 2
//
compound: [2H]N[C@@H](Cc1cnc[nH]1)C(=O)N[C@@H](Cc1ccccc1)C(=O)N1C[C@H](OCc2ccccc2)C[C@H]1C(N)=O
value.unit: %
inhibition at 1 µM: 0
//
compound: [2H]N[C@@H](Cc1cnc[nH]1)C(=O)N[C@@H](Cc1ccccc1)C(=O)N1C[C@H](OCc2ccccc2)C[C@H]1C(=O)NCCCCCCN
value.unit: %
inhibition at 1 µM: 2
//
compound: NCCCNC(=O)[C@@H]1C[C@@H](OCc2ccccc2)CN1C(=O)[C@@H](Cc1ccccc1)NC(=O)[C@@H]1Cc2ccccc2CN1
value.unit: %
inhibition at 1 µM: 6
//
compound: [2H]N1CCC[C@@H]1C(=O)N[C@@H](Cc1ccccc1)C(=O)N1C[C@H](OCc2ccccc2)C[C@H]1C(=O)NCCCN
value.unit: %
inhibition at 1 µM: 11
//
compound: NCCCNC(=O)[C@@H]1C[C@@H](OCc2ccccc2)CN1C(=O)[C@@H](Cc1ccc(Cl)cc1)NC(=O)[C@@H]1Cc2ccccc2CN1
value.unit: %
inhibition at 1 µM: 29
//
compound: NCCCNC(=O)[C@@H]1C[C@@H](OCc2ccccc2)CN1C(=O)[C@@H](Cc1ccc(Cl)cc1)NC(=O)[C@H]1Cc2ccccc2CN1
value.unit: %
inhibition at 1 µM: 27

INPUT: Give recorded inhibition at 1 µM. CCCC[C@H](NC(C)=O)C(=O)N[C@@H](C)C(=O)N[C@@H](Cc1cnc[nH]1)C(=O)N[C@H](Cc1ccccc1)C(=O)N1C[C@H](OCc2ccccc2)C[C@H]1C(=O)NCCCN [Example 9] (Ac-[Nle]AH[dF][Hyp](Bn)-{NH(CH2)3NH2})
OUTPUT: 8

INPUT: Give recorded inhibition at 1 µM. [2H]N[C@@H](Cc1cnc[nH]1)C(=O)N[C@@H](Cc1ccccc1)C(=O)N1C[C@H](OCc2ccccc2)C[C@H]1C(=O)NCCCN
OUTPUT: 0

INPUT: Give recorded inhibition at 1 µM. CCCC[C@H](N)C(=O)N[C@@H](C)C(=O)N[C@@H](Cc1cnc[nH]1)C(=O)N[C@H](Cc1ccccc1)C(=O)N1C[C@H](OCc2ccccc2)C[C@H]1C(=O)NCCCN [Example 10] (H-[Nle]AH[dF][Hyp](Bn)-{NH(CH2)3NH2})
OUTPUT: 2
